Measured pIC50, listed per entry for reference.
Tested on: 889142-216-R-J1-PDC complex spheroid viability;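 note: spheroids exposed to compounds for seven days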
assay_explanation: Anticancer human tumor 889142-216-R-J1-PDC patient-derived bladder carcinoma cell line growth inhibition [POLQ]
experimental_parameters: curve of first compound; second compound 0.0316 µM
// pIC50: -log10(molar conc.)

Use the examples below as a reference point.
{"compound": "COc1cccc2c1C(=O)c1c(O)c3c(c(O)c1C2=O)CC(O)(C(=O)CO)CC3OC1CC(N)C(O)C(C)O1 (centres undefined) + Nc1ccc(C#CCN(C(=O)Cc2ncc(C(F)(F)F)cc2C(F)(F)F)c2ccc(F)cc2)nn1", "measurement_label": "pIC50", "measured_number": 6.47}
{"compound": "CC1COCCN1c1cc(C2(O)CC3CCC(C2)O3)c2cnn(-c3ccn[nH]3)c2n1 (centres undefined) + COC1C(OC(N)=O)C(O)C(Oc2ccc3c(O)c(NC(=O)c4ccc(O)c(CC=C(C)C)c4)c(=O)oc3c2C)OC1(C)C", "measurement_label": "pIC50", "measured_number": 6.90}
{"compound": "CC1COCCN1c1cc(-c2ccnn2C)c2ccnc(-c3ccn[nH]3)c2n1 (centres undefined) + COC1C(OC(N)=O)C(O)C(Oc2ccc3c(O)c(NC(=O)c4ccc(O)c(CC=C(C)C)c4)c(=O)oc3c2C)OC1(C)C", "measurement_label": "pIC50", "measured_number": 6.67}
{"compound": "CC1COCCN1c1cc(C2(S(C)(=N)=O)CC2)nc(-c2ccnc3[nH]ccc23)n1 (centres undefined) + Cc1cccc(N(C)C(=O)C2C(O)CCN2c2nc(C)cc(C(F)(F)F)c2C#N)c1", "measurement_label": "pIC50", "measured_number": 5.15}
{"compound": "CCc1c2c(nc3ccc(O)cc13)-c1cc3c(c(=O)n1C2)COC(=O)[C@]3(O)CC + Cc1cccc(N(C)C(=O)C2C(O)CCN2c2nc(C)cc(C(F)(F)F)c2C#N)c1", "measurement_label": "pIC50", "measured_number": 7.69}
{"compound": "COc1cccc2c1C(=O)c1c(O)c3c(c(O)c1C2=O)CC(O)(C(=O)CO)CC3OC1CC(N)C(O)C(C)O1 (centres undefined) + Cc1cccc(N(C)C(=O)C2C(O)CCN2c2nc(C)cc(C(F)(F)F)c2C#N)c1", "measurement_label": "pIC50", "measured_number": 6.61}
{"compound": "COc1ccc([C@@H](O)c2cc(-c3ncnc4cc(N5CCOCC5)ccc34)c(F)cc2Cl)nn1 + COC1C(OC(N)=O)C(O)C(Oc2ccc3c(O)c(NC(=O)c4ccc(O)c(CC=C(C)C)c4)c(=O)oc3c2C)OC1(C)C", "measurement_label": "pIC50", "measured_number": 5.37}

Now let's try a different one.
Query :: May I ask what pIC50 has been recorded for C#Cc1c(F)ccc2cc(O)cc(-c3ncc4c(N5CC6CCC(C5)N6)nc(OCC56CCCN5CC(F)C6)nc4c3F)c12 (centres undefined) + COC1C(OC(N)=O)C(O)C(Oc2ccc3c(O)c(NC(=O)c4ccc(O)c(CC=C(C)C)c4)c(=O)oc3c2C)OC1(C)C ?
Result :: 5.27
